Molecular target: human CD137 on primary human CD8+ T cells (human, UniProt Q07011 24-255)
Sequence (Q07011 24-255): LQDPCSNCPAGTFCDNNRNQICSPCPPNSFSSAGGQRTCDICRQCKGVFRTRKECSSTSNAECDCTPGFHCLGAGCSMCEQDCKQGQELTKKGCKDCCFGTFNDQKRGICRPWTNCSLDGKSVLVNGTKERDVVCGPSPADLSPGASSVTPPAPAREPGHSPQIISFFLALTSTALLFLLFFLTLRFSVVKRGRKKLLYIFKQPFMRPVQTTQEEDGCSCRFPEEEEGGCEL
Test: cell-based or functional assay
observation_type: IL-2 release EC50, NCI-H226 co-culture, Donor A (nM)
Write the value in nM as a bare number.

>>> numeric_value("FS22-172-003-AA/FS28-256-021 (bispecific antibody, human IgG1, kappa, L234A L235A, V domains shown, IgG1 mAb^2 with LALA) VH: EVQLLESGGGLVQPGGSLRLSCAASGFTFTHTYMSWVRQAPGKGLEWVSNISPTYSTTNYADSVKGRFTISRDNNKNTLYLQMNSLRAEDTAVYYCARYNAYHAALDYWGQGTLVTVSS VL: EIVLTQSPGTLSLSPGERATLSCRASQSVSSSYLAWYQQKPGQAPRLLIYGASSRATGIPDRFSGSGSGTDFTLTISRLEPEDFAVYYCQQHNQYPNTFGQGTKVEIKR")
0.06

Qu. // query IL-2 release EC50, NCI-H226 co-culture, Donor A value for entry FS22-172-003-AA/FS28-256 (bispecific antibody, human IgG1, kappa, L234A L235A, V domains shown, IgG1 mAb^2 with LALA) VH: EVQLLESGGGLVQPGGSLRLSCAASGFTFTNTYMSWVRQAPGKGLEWVSNISPTYSTTNYADSVKGRFTISRDNSKNTLYLQMNSLRAEDTAVYYCARYNSYQGGLDYWGQGTLVTVSS VL: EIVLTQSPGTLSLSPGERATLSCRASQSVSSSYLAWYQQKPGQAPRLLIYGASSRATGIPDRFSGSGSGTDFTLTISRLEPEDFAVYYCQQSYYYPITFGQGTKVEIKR
Ans. 34
